system: THP-1; experiment: CD86 surface expression induction over DMSO control (% over DMSO); higher = stronger dendritic cell activation; settings: exposure time: 24 h
RESULT_TYPE: CD86 surface expression induction
Returns: the value as a bare number; no unit string appended.

# annotated cases, reported CD86 surface expression induction shown
Please report the recorded CD86 surface expression induction for O=[N+]([O-])c1cc(N(CCO)CCO)ccc1NCCO (200 µM) .
-7.47

Try O=C(CCCCCCC(=O)Nc1ccccc1)NO [Vorinostat (SAHA)] (100 µM) next.
5.02

Moving on to CCN(CC)CCSC(=O)C(c1ccccc1)c1ccccc1 [Thiphenamil] (200 µM)
107

New cases:
Which CD86 surface expression induction reading was recorded for the compound CCCCCCCCCCCC(=O)NCCCN(C)C [N-[3-(Dimethylamino)propyl]dodecanamide] (200 µM) ?
43.4

Field entry: CCCCCCCCCCCCO [1-Dodecanol] (100 µM)
21.8

###

system: THP-1; assay: CD54 surface expression induction over DMSO control (% over DMSO); higher = stronger dendritic cell activation; settings: exposure time: 24 h
Readings of CD54 surface expression induction for the listed compounds
The answer should be a number; do not append a unit.

Which CD54 surface expression induction reading was recorded for the compound [Cl][Bi]([Cl])([c]1ccccc1)([c]1ccccc1)[c]1ccccc1 [Triphenylbismuthine dichloride] (10 µM) ?
15.8

Next entry: COc1cc(/C=C2\CCC/C(=C\c3ccc(O)c(OC)c3)C2=O)ccc1O [Cyclovalone] (10 µM)
-1.01

Another compound: O=C(CCCCCCC(=O)Nc1ccccc1)NO [Vorinostat (SAHA)] (100 µM)
4.99

Here is the next item to consider.
Item under review: CCCCC1C(=O)N(c2ccccc2)N(c2ccc(O)cc2)C1=O (centres undefined) [Oxyphenbutazone] (10 µM) . Reported CD54 surface expression induction?
2.37

###

Some compounds, each annotated with its measured CD86 surface expression induction.
system: THP-1; assay: CD86 surface expression induction over DMSO control (% over DMSO); higher = stronger dendritic cell activation; settings: exposure time: 24 h

Consider the worked cases shown below.
Provide value of CD86 surface expression induction for this record tested with THP-1: Clc1ccccc1-c1nc(-c2ccncc2)no1 [Pifexole] (100 µM)
3.84

Queued: O=C1c2ccccc2C(=O)C1c1ccc2ccccc2n1 [D & C Yellow II] (10 µM)
-14.2

New cases:
Observed CD86 surface expression induction on THP-1 for C/C=C/C=C/CCCCCCCO [Codlelure] (200 µM) , please.
-13

Query O=c1cc(-c2ccccc2)oc2cc(O)cc(O)c12 [Chrysin] (100 µM) next
38.2

Now consider O=C(O)CCCCCCCCC(=O)O [Decanedioic acid] (200 µM) .
-3.64

###

system: KeratinoSens (HaCaT ARE-luciferase) cells; experiment: Nrf2/ARE luciferase activation call in qHTS KeratinoSens assay (1 = active, 0 = inactive);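 active = curve rank above 3; inactive = curve rank 0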
Tick one outcome: active, inactive

As a guide, the following entries are already answered.
Hi team, can someone confirm the assay call for NC(CO)(CO)CO.O=C(c1ccccc1)c1ccc2n1CC[C@H]2C(=O)O ?
inactive

CC(C)C[P+](C)(CC(C)C)CC(C)C.Cc1ccc(S(=O)(=O)[O-])cc1 , same question.
inactive

Another molecule: CCOCC(O)COc1ccc(NC(=O)CC[S+](C)C)cc1.Cc1ccc(S(=O)(=O)[O-])cc1 (stereo not given)
inactive

Same thing, different molecule: CCC1=C[C@@H]2C[N@](C1)Cc1c([nH]c3ccccc13)[C@@](C(=O)OC)(c1cc3c(cc1OC)N(C)[C@H]1[C@@](O)(C(=O)OC)[C@H](OC(C)=O)[C@]4(CC)C=CCN5CC[C@]31[C@@H]54)C2.O=C(O)C(O)C(O)C(=O)O.O=C(O)C(O)C(O)C(=O)O
active

Now consider CC(C)NCC(O)COc1ccc(COCCOC(C)C)cc1.CC(C)NCC(O)COc1ccc(COCCOC(C)C)cc1.O=C(O)/C=C/C(=O)O (stereo not given) .
inactive

Further cases:
Outcome logged for O=C(O)/C=C/C(=O)O.O=C1c2ccccc2C(=O)N1CCc1noc(-c2ccc(CN3CCCCCC3)s2)n1 in this assay:
inactive

One more molecule: CN1C(C)(C)CCCC1(C)C.O=C(O)[C@@H](O)[C@H](O)C(=O)O
inactive

Try CN(C)CCOC(C)(c1ccccc1)c1ccccn1.O=C(O)CCC(=O)O (stereo not given) next.
inactive
